Target: T1, recombinant human LILRB1-His (human, UniProt Q8NHL6 24-458)
T1 construct: Bought protein; also called LILRB1 protein
T1 sequence (Q8NHL6 24-458 limits assumed): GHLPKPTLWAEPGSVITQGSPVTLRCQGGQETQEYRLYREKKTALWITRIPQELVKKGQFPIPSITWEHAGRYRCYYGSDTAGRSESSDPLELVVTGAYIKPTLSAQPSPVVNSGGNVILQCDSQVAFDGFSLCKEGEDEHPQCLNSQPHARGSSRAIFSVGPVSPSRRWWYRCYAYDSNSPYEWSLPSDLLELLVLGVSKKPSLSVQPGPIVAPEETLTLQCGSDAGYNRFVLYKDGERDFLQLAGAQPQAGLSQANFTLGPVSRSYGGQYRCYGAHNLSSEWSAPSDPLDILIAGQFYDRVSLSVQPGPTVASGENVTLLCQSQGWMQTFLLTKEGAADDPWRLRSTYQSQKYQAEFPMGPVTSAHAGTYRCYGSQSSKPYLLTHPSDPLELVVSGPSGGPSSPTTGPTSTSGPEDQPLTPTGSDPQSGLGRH
Assay: MSD ELISA, coated antigen, transfection supernatant
Procedure: To confirm binding to human LILRB1 and human LILRB2, transfection supernatants (obtained in Example 2) were evaluated for binding by ELISA. […] A plate-based MSD ELISA was performed in which human LILRB1-His or LILRB2-His was immobilized, and binding of transfection supernatants of humanized mAb variants was detected via an anti-human IgG Sulfo-tag-labeled secondary antibody. […]
property: EC50
Remember to put the unit after the number in your answer.

B21H4-21 (antibody, human IgG4 S228P, kappa, V domains shown, humanized IgG4/kappa, VH2+VL1; transfection supernatant) VH: EVQLLESGGGLVQPGGSLRLSCAASGFSLNTYAMTWVRQAPGKGLEWVSIIVASGGTYYASWAKGRFTISRDNSKNTLYLQMNSLTVEDTAVYFCARGGMGSDWGESLDAFDPWGQGTLVTVSS VL: DIQMTQSPSTLSASVGDRVTITCQASGNIYSFLAWYQQKPGKAPKLLIYTASNLETGVPSRFSGSGSGTEYTLTISSLQPDDFATYYCLGGLYSSDVSYAFGPGTKVEIKR	2.32 ng/mL

Please turn your attention to the following entry.
Enquiry: Return reported EC50; argument: B21H4-53 (antibody, human IgG4 S228P, kappa, V domains shown, humanized IgG4/kappa, VH5+VL3; transfection supernatant) VH: QVQLEESGGRLVQPGTSLRLSCAVSGFSLNTYAMTWVRQAPGKGLEWIGIIVASGGTYYASWAKGRFTISRDTSKNTLYLQITSLRAEDTATYFCARGGMGSDWGESLDAFDPWGQGTLVTVSS VL: DIVMTQSPSSVSASVGDRVTITCQASGNIYSFLAWYQQKPGKAPKLLIYTASNLETGVPSRFSGSGSGTDFTLTISSLQPEDFATYYCLGGLYSSDVSYAFGGGTKVVIKR
Return: 4.7 ng/mL
